Reported values of pIC50 for individual entries
target: human PD-1 / PD-L1-Ig binding on Jurkat cell line over-expressing human PD-1 (Jurkat-PD-1) (Homo sapiens, UniProt Q15116); construct: expressed in transfected cells; host or cells: Jurkat; assay: Jurkat-PD-1 Cell Binding High-Content Screening Assay (CBA); assay type: cell-based; settings: Jurkat-PD-1 cells, PE-labeled PD-L1-Ig 20 nM final; read-out: Jurkat HPD1_PDL1 IC50
Sequence (Q15116 25-288): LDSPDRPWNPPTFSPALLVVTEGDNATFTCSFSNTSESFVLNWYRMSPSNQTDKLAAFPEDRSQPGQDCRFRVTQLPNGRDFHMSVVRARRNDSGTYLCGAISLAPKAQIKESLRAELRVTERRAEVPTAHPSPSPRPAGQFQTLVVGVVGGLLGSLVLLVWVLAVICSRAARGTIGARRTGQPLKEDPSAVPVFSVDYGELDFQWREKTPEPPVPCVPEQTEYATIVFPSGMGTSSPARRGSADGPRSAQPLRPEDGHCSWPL
Where a SMILES comes first, the peptide text is derived from it. Bridges are numbered along the chain shown (N, C = ends). [ ]: non-standard residue; d: D form. Bip = N[C@@H](Cc1ccc(-c2ccccc2)cc1)C(=O)O; Phe(3-Me) = Cc1cccc(C[C@H](N)C(=O)O)c1; 4Pal = N[C@@H](Cc1ccncc1)C(=O)O; Orn = NCCC[C@H](N)C(=O)O; Dab = NCC[C@H](N)C(=O)O; Dap = NC[C@H](N)C(=O)O
Interpret pIC50 as the negative base-10 log of the concentration measured in mol/L.

{"columns": ["compound", "property-label", "quantitative-readout"],
 "data": [
  ["CCC(C)[C@@H]1NC(=O)[C@H](Cc2ccc(-c3ccccc3)cc2)NC(=O)[C@H](C(C)C)NC(=O)[C@H](Cc2c[nH]c3ccccc23)NC(=O)[C@H](CC(=O)O)NC(=O)[C@H](Cc2ccc(OCC(=O)O)cc2)NC(=O)[C@H](CN)NC(=O)CSC[C@@H](C(=O)N[C@@H](C)C(N)=O)NC(=O)[C@H](C(C)O)NC(=O)[C@H](C(C)C)NC(=O)[C@H](CC2CCCCC2)NC(=O)[C@H](CCN)NC(=O)[C@@H](CC(C)C)NC(=O)[C@H](CCCN)NC1=O (some centres unmarked)", "pIC50", 7.98],
  ["CC(C)C[C@@H]1NC(=O)[C@H](Cc2c[nH]c3ccccc23)NC(=O)[C@H](CC(=O)O)NC(=O)[C@H](Cc2ccc(O)cc2)NC(=O)[C@H](Cc2ccccc2)NC(=O)CSC[C@@H](C(=O)N[C@@H](C)C(N)=O)NC(=O)[C@H]([C@@H](C)O)NC(=O)[C@H](C(C)C)NC(=O)[C@H](CC(C)C)NC(=O)[C@H](CC(N)=O)NC(=O)[C@@H](C)NC(=O)[C@H](CN)NC(=O)[C@H](C(C)C)NC(=O)[C@H](Cc2ccc(-c3ccccc3)cc2)NC1=O [Compound 1076] ({CH2CO}-FYDWL[Bip]V[Dap][dA]NLVTCA-NH2; thioether N-14)", "pIC50", 7.16],
  ["CC(C)C[C@@H]1NC(=O)[C@H](Cc2c[nH]c3ccccc23)NC(=O)[C@H](CC(=O)O)NC(=O)[C@H](Cc2ccc(O)cc2)NC(=O)[C@H](Cc2ccccc2)NC(=O)CSC[C@@H](C(=O)NCC(N)=O)NC(=O)[C@H]([C@@H](C)O)NC(=O)[C@H](C(C)C)NC(=O)[C@H](CC(C)C)NC(=O)[C@H](CCN)NC(=O)[C@@H](CC(C)C)NC(=O)[C@H](CCN)NC(=O)[C@H](C(C)C)NC(=O)[C@H](Cc2ccc(-c3ccccc3)cc2)NC1=O [Compound 1060] ({CH2CO}-FYDWL[Bip]V[Dab][dL][Dab]LVTCG-NH2; thioether N-14)", "pIC50", 7.79],
  ["CC(C)C[C@@H]1NC(=O)[C@H](CCN)NC(=O)[C@@H](CC(C)C)NC(=O)[C@H](CCCN)NC(=O)[C@H](CCC(=O)O)NC(=O)[C@H](Cc2ccc(-c3ccccc3)cc2)NC(=O)[C@H](C(C)C)NC(=O)[C@H](Cc2c[nH]c3ccccc23)NC(=O)[C@H](CC(=O)O)NC(=O)[C@H](Cc2ccc(O)cc2)NC(=O)[C@H](CC(N)=O)NC(=O)CSC[C@@H](C(=O)N[C@@H](C)C(N)=O)NC(=O)[C@H]([C@@H](C)O)NC(=O)[C@H](C(C)C)NC1=O [Compound 1016] ({CH2CO}-NYDWV[Bip]E[Orn][dL][Dab]LVTCA-NH2; thioether N-14)", "pIC50", 7.50],
  ["CC(C)C[C@H]1NC(=O)[C@H](CCCN)NC(=O)[C@H](C(C)C)NC(=O)[C@H](Cc2ccc(-c3ccccc3)cc2)NC(=O)[C@H](C(C)C)NC(=O)[C@H](Cc2c[nH]c3ccccc23)NC(=O)[C@H](CC(=O)O)NC(=O)[C@H](Cc2ccc(O)cc2)NC(=O)[C@H](CC#N)NC(=O)CSC[C@@H](C(=O)N[C@@H](C)C(N)=O)NC(=O)[C@H](C(C)O)NC(=O)[C@H](C(C)C)NC(=O)[C@H](CC2CCCCC2)NC(=O)[C@H](CCN)NC1=O (some centres unmarked) [Compound 2536]", "pIC50", 7.96],
  ["Cc1cccc(C[C@@H]2NC(=O)[C@H](CC(=O)O)NC(=O)[C@H](Cc3ccc(OCC(=O)O)cc3)NC(=O)[C@H](Cc3ccncc3)NC(=O)CSC[C@@H](C(=O)N[C@@H](CCN)C(N)=O)NC(=O)[C@H](CO)NC(=O)[C@H](C(C)(C)O)NC(=O)[C@H](CC3CCCCC3)NC(=O)[C@H](CCN)NC(=O)[C@@H](CC(C)C)NC(=O)C(C3CCNCC3)NC(=O)[C@H](Cc3ccc(OCC(=O)O)cc3)NC(=O)[C@H](Cc3ccc(-c4ccccc4)cc3)NC(=O)[C@H](Cc3ccc(OCC(=O)O)cc3)NC2=O)c1 (some centres unmarked) [Compound 2083]", "pIC50", 6.04]
]}

stdin: What pIC50 value was documented for this compound, Cc1cccc(C[C@@H]2NC(=O)[C@H](CC(=O)O)NC(=O)[C@H](Cc3ccncc3)NC(=O)[C@H](CN)NC(=O)CSC[C@@H](C(=O)N[C@@H](C)C(N)=O)NC(=O)[C@H]([C@@H](C)O)NC(=O)[C@H](C(C)C)NC(=O)[C@H](CC(C)C)NC(=O)[C@H](CCN)NC(=O)[C@@H](CC(C)C)NC(=O)[C@H](CCCN)NC(=O)[C@H](C(C)C)NC(=O)[C@H](Cc3ccc(-c4ccccc4)cc3)NC(=O)[C@H](C(C)C)NC2=O)c1 [Compound 1223] ({CH2CO}-[Dap][4Pal]D[Phe(3-Me)]V[Bip]V[Orn][dL][Dab]LVTCA-NH2; thioether N-14) ?
stdout: 8.21

stdin: Query Cc1cccc(C[C@@H]2NC(=O)[C@H](CC(=O)O)NC(=O)[C@H](Cc3ccc(OCC(=O)O)cc3)NC(=O)[C@H](Cc3cccnc3)NC(=O)CSC[C@@H](C(=O)N[C@@H](C)C(N)=O)NC(=O)[C@H]([C@@H](C)O)NC(=O)[C@H](C(C)C)NC(=O)[C@H](CC3CCCCC3)NC(=O)[C@H](Cc3cnc[nH]3)NC(=O)[C@@H](CC(C)C)NC(=O)[C@H](CCCN)NC(=O)[C@H](C(C)C)NC(=O)[C@H](Cc3ccc(-c4ccccc4)cc3)NC(=O)[C@H](C(C)C)NC2=O)c1 next
stdout: 7.59

* * *

biological target: human PD-1 / PD-L1-Ig binding on Jurkat cell line over-expressing human PD-1 (Jurkat-PD-1) (Homo sapiens, UniProt Q15116); construct: expressed in transfected cells; host or cells: Jurkat; test: Jurkat-PD-1 Cell Binding High-Content Screening Assay (CBA); assay type: cell-based; details: Jurkat-PD-1 cells, PE-labeled PD-L1-Ig 20 nM final; read-out: Jurkat HPD1_PDL1 IC50
Where a SMILES comes first, the peptide text is derived from it. Bridges are numbered along the chain shown (N, C = ends). [ ]: non-standard residue; d: D form. Bip = N[C@@H](Cc1ccc(-c2ccccc2)cc1)C(=O)O; Orn = NCCC[C@H](N)C(=O)O; Dab = NCC[C@H](N)C(=O)O
property-label: IC50 (nM)
Report the figure in nM without appending any unit label.

Please review the following examples before continuing.
{"columns": ["compound", "IC50, nM"],
 "data": [
  ["CC(C)C[C@H]1NC(=O)[C@H](CCCN)NC(=O)[C@H](CCC(=O)O)NC(=O)[C@H](Cc2ccc(-c3ccccc3)cc2)NC(=O)[C@H](C(C)C)NC(=O)[C@H](Cc2c[nH]c3ccccc23)NC(=O)[C@H](CC(=O)O)NC(=O)[C@H](Cc2cccnc2)NC(=O)[C@H](Cc2ccc(OCC(=O)O)cc2)NC(=O)CSC[C@@H](C(=O)N[C@@H](C)C(N)=O)NC(=O)[C@H]([C@@H](C)O)NC(=O)[C@H](C(C)C)NC(=O)[C@H](CC2CCCCC2)NC(=O)[C@H](CCN)NC1=O [Compound 2173]", 16.8],
  ["CC(C)C[C@@H]1NC(=O)[C@H](CCCCN)NC(=O)[C@@H](CC(C)C)NC(=O)[C@H](CCN)NC(=O)[C@H](Cc2cnc[nH]2)NC(=O)[C@H](Cc2ccc(-c3ccccc3)cc2)NC(=O)[C@H](C(C)C)NC(=O)[C@H](Cc2c[nH]c3ccccc23)NC(=O)[C@H](CC(=O)O)NC(=O)[C@H](Cc2ccc(O)cc2)NC(=O)[C@H](CC(N)=O)NC(=O)CSC[C@@H](C(=O)NCC(N)=O)NC(=O)[C@H](CO)NC(=O)[C@H](C(C)C)NC1=O [Compound 1139] ({CH2CO}-NYDWV[Bip]H[Dab][dL]KLVSCG-NH2; thioether N-14)", 44.4],
  ["Cc1cccc(C[C@@H]2NC(=O)[C@H](CC(=O)O)NC(=O)[C@H](Cc3ccc(C(=O)O)cc3)NC(=O)[C@H](Cc3ccc(OCC(=O)O)cc3)NC(=O)CSC[C@@H](C(=O)N[C@@H](C)C(N)=O)NC(=O)[C@H]([C@@H](C)O)NC(=O)[C@H](C(C)C)NC(=O)[C@H](CC3CCCCC3)NC(=O)[C@H](CCN)NC(=O)[C@@H](CC(C)C)NC(=O)[C@H](CCCN)NC(=O)[C@H](CN)NC(=O)[C@H](Cc3ccc(-c4ccccc4)cc3)NC(=O)[C@H](C(C)C)NC2=O)c1 [Compound 1416]", 8.5],
  ["CCC(C)[C@@H]1NC(=O)[C@H](Cc2ccc(-c3ccccc3)cc2)NC(=O)[C@H](C(C)C)NC(=O)[C@H](Cc2cc(C)ccc2F)NC(=O)[C@H](CC(=O)O)NC(=O)[C@H](Cc2ccc(OCC(=O)O)cc2)NC(=O)[C@H](CN)NC(=O)CSC[C@@H](C(=O)N[C@@H](C)C(N)=O)NC(=O)[C@H]([C@@H](C)O)NC(=O)[C@H](C(C)C)NC(=O)[C@H](CC2CCCCC2)NC(=O)[C@H](CCN)NC(=O)[C@@H](CC(C)C)NC(=O)[C@H](CCCN)NC1=O (some centres unmarked) [Compound 2247]", 13.3],
  ["CC(C)C[C@@H]1NC(=O)[C@H](CCCCN)NC(=O)[C@@H](CC(C)C)NC(=O)[C@H](CCCN)NC(=O)[C@H](C(C)C)NC(=O)[C@H](Cc2ccc(-c3ccccc3)cc2)NC(=O)[C@H](C(C)C)NC(=O)[C@H](Cc2c[nH]c3ccccc23)NC(=O)[C@H](CC(=O)O)NC(=O)[C@H](Cc2ccc(O)cc2)NC(=O)[C@H](CC(N)=O)NC(=O)CSC[C@@H](C(=O)N[C@@H](C)C(N)=O)NC(=O)[C@H]([C@@H](C)O)NC(=O)[C@H](C(C)C)NC1=O [Compound 1130] ({CH2CO}-NYDWV[Bip]V[Orn][dL]KLVTCA-NH2; thioether N-14)", 19.5],
  ["Cc1cccc(C[C@@H]2NC(=O)[C@H](CC(=O)O)NC(=O)[C@H](Cc3ccc(C(=O)O)cc3)NC(=O)[C@H](Cc3ccncc3)NC(=O)CSC[C@@H](C(=O)N[C@@H](C)C(N)=O)NC(=O)[C@H]([C@@H](C)O)NC(=O)[C@H](C(C)C)NC(=O)[C@H](CC3CCCCC3)NC(=O)[C@H](CCN)NC(=O)[C@@H](CC(C)C)NC(=O)[C@H](CCCN)NC(=O)[C@H](c3ccccc3)NC(=O)[C@H](Cc3ccc(-c4ccccc4)cc3)NC(=O)[C@H](C(C)C)NC2=O)c1 [Compound 1616]", 9.3],
  ["CC(C)C[C@H]1NC(=O)[C@H](CCCN)NC(=O)[C@H](CCCNC(N)=O)NC(=O)[C@H](Cc2ccc(-c3ccccc3)cc2)NC(=O)[C@H](C(C)C)NC(=O)[C@H](Cc2c[nH]c3ccccc23)NC(=O)[C@H](CC(=O)O)NC(=O)[C@H](Cc2cccnc2)NC(=O)[C@H](CN)NC(=O)CSC[C@@H](C(=O)N[C@@H](C)C(N)=O)NC(=O)[C@H]([C@@H](C)O)NC(=O)[C@H](C(C)C)NC(=O)[C@H](CC2CCCCC2)NC(=O)[C@H](CCN)NC1=O [Compound 2094]", 8.7]
]}

stdin: What IC50 value was documented for this compound, CC[C@H](C)[C@@H]1NC(=O)[C@H](Cc2ccc(-c3ccccc3)cc2)NC(=O)[C@H](C(C)C)NC(=O)[C@H](Cc2c[nH]c3ccccc23)NC(=O)[C@H](CC(=O)O)NC(=O)[C@H](Cc2ccc(O)cc2)NC(=O)[C@H](CC(N)=O)NC(=O)CSC[C@@H](C(=O)N[C@@H](C)C(N)=O)NC(=O)[C@H](CO)NC(=O)[C@H](C(C)C)NC(=O)[C@H](CC(C)C)NC(=O)[C@H](CCN)NC(=O)[C@@H](CC(C)C)NC(=O)[C@H](CCCCN)NC1=O [Compound 1119] ({CH2CO}-NYDWV[Bip]IK[dL][Dab]LVSCA-NH2; thioether N-14) ?
stdout: 13.3
